Target: PGE2 receptor 1 (EP1) (Homo sapiens, UniProt P34995)
Sequence (P34995 whole entry): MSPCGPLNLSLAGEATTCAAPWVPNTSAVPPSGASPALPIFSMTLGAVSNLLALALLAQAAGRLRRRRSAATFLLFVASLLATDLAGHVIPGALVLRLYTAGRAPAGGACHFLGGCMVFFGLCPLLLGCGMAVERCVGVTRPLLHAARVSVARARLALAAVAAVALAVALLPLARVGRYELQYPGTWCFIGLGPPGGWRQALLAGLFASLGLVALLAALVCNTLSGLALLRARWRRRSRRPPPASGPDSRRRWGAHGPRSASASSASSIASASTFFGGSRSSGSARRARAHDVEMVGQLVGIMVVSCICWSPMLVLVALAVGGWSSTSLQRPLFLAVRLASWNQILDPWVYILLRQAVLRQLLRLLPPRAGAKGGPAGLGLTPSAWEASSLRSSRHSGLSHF
Assay: EP1 receptor calcium agonist assay (HEK293T cells)
Assay type: cell-based
Settings: Table 22; relative to treprostinil EC50 values; * partial agonists or ambiguous dose-response curves
Description: Calcium assay kit: Multiscreen™ Calcium 1.0 No Wash Kit (Multispan, Inc., Cat #MSCA01-1) […] Calcium Assay: Cells were seeded in a 384-well plate at an appropriate density. […] For agonist mode, cells were injected with Iloprost control agonist or test compound by FLIPR and calcium mobilization was monitored for 180 seconds with compound injected into the wells at the 19th second. Fluorescent emissions were read at 525 nm with excitation at 490 nm in a FLIPR 384 instrument (Molecular Devices). […]
Returns: string. Value is YES if measured EP1 Relative to Tre is below 20 x*, and NO if it is greater than or equal to it.

Use these answered entries as a reference point.
CCCCCC(CCC1C(O)CC2Cc3c(cccc3OCC(=O)O)CC21)OCOC(=O)C(C)(C)C (stereo not shown) [Prodrug LII] | NO
CCCCCC(CCC1C(O)CC2Cc3c(cccc3OCC(=O)O)CC21)OC(=O)CC (stereo not shown) [Prodrug LV] | NO
CCCCCC(CCC1C(O)CC2Cc3c(cccc3OCC(=O)O)CC21)OC(=O)COc1ccc(OC(F)(F)F)cc1 (stereo not shown) [Prodrug LXIV] | YES

Let's switch to this compound now.
I'd appreciate it if you could check whether CCCCCC(CCC1C(O)CC2Cc3c(cccc3OCC(=O)O)CC21)OC(=O)COc1ccccc1 (stereo not shown) [Prodrug LXV] has EP1 Relative to Tre smaller than 20 x*.
NO

----------
Assay: Stability in liver microsomes, human
Settings: human
property.name: AUC (µmol·min/L)
Report the figure in µmol·min/L without appending any unit label.

Worked cases, AUC given:
CCCCCC(CCC1C(O)CC2Cc3c(cccc3OCC(=O)O)CC21)OC(=O)c1ccc(O)c(O)c1 (stereo not shown) | 0.94
CCCCCC(CCC1C(O)CC2Cc3c(cccc3OCC(=O)O)CC21)OC(=O)OC (stereo not shown) | 16.85
CCCCCC(CCC1C(O)CC2Cc3c(cccc3OCC(=O)O)CC21)OC(=O)COc1ccc(OC(F)(F)F)cc1 (stereo not shown) | 35.93
CCCCCC(CCC1C(O)CC2Cc3c(cccc3OCC(=O)O)CC21)OC(=O)CCC(=O)N1CCOCC1 (stereo not shown) | 0.00
CCCCCC(CCC1C(O)CC2Cc3c(cccc3OCC(=O)O)CC21)OC(=O)CCC(=O)O (stereo not shown) | 6.43
CCCCCC(CCC1C(O)CC2Cc3c(cccc3OCC(=O)O)CC21)OP(=O)(O)O (stereo not shown) | 2.38
CCCCCC(O)CCC1C(O)CC2Cc3c(cccc3OCC(=O)NCC(=O)O)CC21 (stereo not shown) | 0.00
CCCCCC(O)CCC1C(OC(=O)CCC(=O)O)CC2Cc3c(cccc3OCC(=O)O)CC21 (stereo not shown) | 0.00

Quick check: AUC of CCCCCC(CCC1C(O)CC2Cc3c(cccc3OCC(=O)O)CC21)OC(=O)C(C)C (stereo not shown) ?
40.60

Param item = CCCCCC(CCC1C(OC(=O)OC)CC2Cc3c(cccc3OCC(=O)O)CC21)OC(=O)OC (stereo not shown) [Prodrug LXXI, treprostinil dicarbonate] ; retrieve measured AUC.
10.56

GET /values?readout=AUC&item= CCCCCC(CCC1C(O)CC2Cc3c(cccc3OCC(=O)O)CC21)OC(=O)CN (stereo not shown)
16.41

State the recorded AUC for this entry: CCCCCC(CCC1C(O)CC2Cc3c(cccc3OCC(=O)O)CC21)OC(=O)NCC(=O)O (stereo not shown)
0.00

Which value of AUC has been reported for CCCCC[C@H]1CC[C@@H]2[C@H]3Cc4cccc(OCC(=O)O)c4C[C@H]3C[C@H]2OC(=O)O1 in the records?
18.43
